# Tested on: S. aureus ATCC 13709
# assay_details: MIC assay, S. aureus
# Assay type: cell-based
# stated_conditions: Table 2, benzylamino group modified analogs
Here, each record is paired with measured MIC S. aureus data.
measured_endpoint: MIC S. aureus

1. O=C(NCCCNCc1ccc(Cl)c(Cl)c1)Nc1ccc(C(F)(F)F)cc1 [12q]
3 to 6 µM
2. O=C(NCCCNCc1cc(C(F)(F)F)cc(C(F)(F)F)c1)Nc1ccc(C(F)(F)F)cc1 [12o]
50 to 100 µM
3. CC(=O)NC[C@H]1CN(c2ccc(N3CCOCC3)c(F)c2)C(=O)O1 [Linezolide, reference compound]
3 to 6 µM
4. O=C(NCCCNCc1ccccc1OC(F)(F)F)Nc1ccc(C(F)(F)F)cc1 [12b]
12 to 25 µM
5. COc1cc(Br)cc(CNCCCNC(=O)Nc2ccc(C(F)(F)F)cc2)c1O [12t]
12 to 25 µM
6. O=C(NCCCNCc1ccc(OC(F)(F)F)cc1)Nc1ccc(C(F)(F)F)cc1 [12d]
3 to 6 µM
7. O=C(NCCCNCc1cccc(-c2ccccc2)c1)Nc1ccc(C(F)(F)F)cc1 [12c]
6 to 12 µM
8. CCOc1ccc(Br)cc1CNCCCNC(=O)Nc1ccc(C(F)(F)F)cc1 [12u]
6 to 12 µM
9. O=C(NCCCNCc1cc(F)cc(F)c1)Nc1ccc(C(F)(F)F)cc1 [12n]
50 to 100 µM
10. CN(C)c1ccc(CNCCCNC(=O)Nc2ccc(C(F)(F)F)cc2)cc1 [12j]
12 to 25 µM
11. COc1cc(CNCCCNC(=O)Nc2ccc(C(F)(F)F)cc2)cc(OC)c1 [12p]
50 to 100 µM
12. COc1ccccc1-c1ccc(CNCCCNC(=O)Nc2ccc(C(F)(F)F)cc2)cc1 [12g]
6 to 12 µM
13. COc1ccc(-c2ccc(CNCCCNC(=O)Nc3ccc(C(F)(F)F)cc3)cc2)cc1 [12f]
3 to 6 µM
14. O=C(NCCCNCc1cc(Br)cc(Br)c1)Nc1ccc(C(F)(F)F)cc1
3 to 6 µM
15. O=C(NCCCNCc1cc(Cl)cc(Cl)c1)Nc1ccc(C(F)(F)F)cc1 [12m]
6 to 12 µM

---

# assay_details: MIT HUH-7 CC50 48h cytotoxicity
# Type: cell-based
# stated_conditions: human, HUH-7 cells; HUH-7, 48h
measured_endpoint: CC50 at 48 h

1. CCOc1c(Br)cc(Br)cc1CNCCCNC(=O)Nc1ccc(C(F)(F)F)cc1 [12s]
50 to 100 µM
2. O=C(NCCCNCc1ccc(Oc2ccccc2)cc1)Nc1ccc(C(F)(F)F)cc1 [12h]
12.5 to 25 µM
3. CN(CCCNC(=O)Nc1ccc(C(F)(F)F)cc1)CCCOc1ccc(Br)cc1Br [14b]
> 100 µM
4. O=C(NCCCNCc1ccc(-c2ccccc2)cc1)Nc1ccc(C(F)(F)F)cc1 [12e]
25 to 50 µM

---

# assay_details: log P
# Type: physicochemical
Please use Satisfied whenever logP is not below 5, and Not satisfied whenever it is.

1) CN(CCCNC(=O)Nc1ccc(C(F)(F)F)cc1)CCCOc1ccc(Br)cc1Br [14b]
Satisfied
2) O=C(NCCCNCc1ccc(Oc2ccccc2)cc1)Nc1ccc(C(F)(F)F)cc1 [12h]
Not satisfied

Hello, the source for this data is patent US20060030603A1, in case you need it.
